Hello, the source for this data is patent US6218157A, in case you need it.

Entries annotated with measured Relative activity
system.tested: ethyl 4-chloroacetoacetate reductase (Kluyveromyces lactis)
Construct: almost single band, about 190 kDa on SDS-PAGE
Sequence (Q6CT25 1-1893): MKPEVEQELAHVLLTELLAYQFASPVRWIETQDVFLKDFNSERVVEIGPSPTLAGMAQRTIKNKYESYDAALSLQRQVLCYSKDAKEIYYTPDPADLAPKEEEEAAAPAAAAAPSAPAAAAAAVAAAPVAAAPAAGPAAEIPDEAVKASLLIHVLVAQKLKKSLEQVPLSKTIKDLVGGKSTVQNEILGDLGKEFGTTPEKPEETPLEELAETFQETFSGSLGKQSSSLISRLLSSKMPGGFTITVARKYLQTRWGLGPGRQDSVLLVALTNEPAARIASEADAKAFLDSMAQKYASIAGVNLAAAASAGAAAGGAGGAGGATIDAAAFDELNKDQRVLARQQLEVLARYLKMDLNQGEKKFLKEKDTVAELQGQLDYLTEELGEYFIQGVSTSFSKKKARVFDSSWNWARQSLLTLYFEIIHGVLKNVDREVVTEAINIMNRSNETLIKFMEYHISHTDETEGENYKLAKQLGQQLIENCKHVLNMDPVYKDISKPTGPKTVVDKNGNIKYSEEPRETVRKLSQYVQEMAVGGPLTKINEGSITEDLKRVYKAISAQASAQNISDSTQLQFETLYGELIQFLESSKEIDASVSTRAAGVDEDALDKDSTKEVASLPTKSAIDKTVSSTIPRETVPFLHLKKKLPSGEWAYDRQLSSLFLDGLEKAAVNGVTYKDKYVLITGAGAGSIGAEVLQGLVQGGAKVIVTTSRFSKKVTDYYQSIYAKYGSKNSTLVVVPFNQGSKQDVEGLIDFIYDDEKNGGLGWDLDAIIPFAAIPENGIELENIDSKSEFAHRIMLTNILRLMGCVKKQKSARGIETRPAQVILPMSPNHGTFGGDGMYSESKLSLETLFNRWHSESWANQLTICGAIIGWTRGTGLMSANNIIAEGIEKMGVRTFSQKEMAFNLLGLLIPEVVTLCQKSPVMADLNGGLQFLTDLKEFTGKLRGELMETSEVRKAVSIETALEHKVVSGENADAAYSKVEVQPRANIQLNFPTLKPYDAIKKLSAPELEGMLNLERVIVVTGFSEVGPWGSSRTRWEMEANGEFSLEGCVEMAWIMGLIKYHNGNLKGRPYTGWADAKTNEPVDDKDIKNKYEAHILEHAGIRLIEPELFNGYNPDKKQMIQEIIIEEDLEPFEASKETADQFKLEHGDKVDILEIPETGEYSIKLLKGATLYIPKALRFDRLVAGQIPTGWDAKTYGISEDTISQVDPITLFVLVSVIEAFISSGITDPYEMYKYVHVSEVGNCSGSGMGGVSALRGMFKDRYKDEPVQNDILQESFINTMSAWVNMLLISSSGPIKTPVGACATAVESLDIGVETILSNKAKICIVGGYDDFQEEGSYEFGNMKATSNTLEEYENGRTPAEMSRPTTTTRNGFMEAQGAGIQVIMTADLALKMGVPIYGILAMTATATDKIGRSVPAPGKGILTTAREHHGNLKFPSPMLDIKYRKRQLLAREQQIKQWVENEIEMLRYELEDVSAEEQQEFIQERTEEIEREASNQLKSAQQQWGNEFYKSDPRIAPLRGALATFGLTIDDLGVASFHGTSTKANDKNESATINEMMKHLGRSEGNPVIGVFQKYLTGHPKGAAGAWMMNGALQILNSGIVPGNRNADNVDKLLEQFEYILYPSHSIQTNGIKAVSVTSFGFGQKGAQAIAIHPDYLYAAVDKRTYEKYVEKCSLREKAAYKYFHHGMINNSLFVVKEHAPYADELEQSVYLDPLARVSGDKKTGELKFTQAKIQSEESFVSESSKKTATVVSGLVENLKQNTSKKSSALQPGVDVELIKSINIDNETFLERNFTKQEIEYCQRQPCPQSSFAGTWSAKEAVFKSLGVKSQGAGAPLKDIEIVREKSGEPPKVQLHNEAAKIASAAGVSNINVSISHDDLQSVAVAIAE
Sequence (Q6CWN6 1-2047 partner): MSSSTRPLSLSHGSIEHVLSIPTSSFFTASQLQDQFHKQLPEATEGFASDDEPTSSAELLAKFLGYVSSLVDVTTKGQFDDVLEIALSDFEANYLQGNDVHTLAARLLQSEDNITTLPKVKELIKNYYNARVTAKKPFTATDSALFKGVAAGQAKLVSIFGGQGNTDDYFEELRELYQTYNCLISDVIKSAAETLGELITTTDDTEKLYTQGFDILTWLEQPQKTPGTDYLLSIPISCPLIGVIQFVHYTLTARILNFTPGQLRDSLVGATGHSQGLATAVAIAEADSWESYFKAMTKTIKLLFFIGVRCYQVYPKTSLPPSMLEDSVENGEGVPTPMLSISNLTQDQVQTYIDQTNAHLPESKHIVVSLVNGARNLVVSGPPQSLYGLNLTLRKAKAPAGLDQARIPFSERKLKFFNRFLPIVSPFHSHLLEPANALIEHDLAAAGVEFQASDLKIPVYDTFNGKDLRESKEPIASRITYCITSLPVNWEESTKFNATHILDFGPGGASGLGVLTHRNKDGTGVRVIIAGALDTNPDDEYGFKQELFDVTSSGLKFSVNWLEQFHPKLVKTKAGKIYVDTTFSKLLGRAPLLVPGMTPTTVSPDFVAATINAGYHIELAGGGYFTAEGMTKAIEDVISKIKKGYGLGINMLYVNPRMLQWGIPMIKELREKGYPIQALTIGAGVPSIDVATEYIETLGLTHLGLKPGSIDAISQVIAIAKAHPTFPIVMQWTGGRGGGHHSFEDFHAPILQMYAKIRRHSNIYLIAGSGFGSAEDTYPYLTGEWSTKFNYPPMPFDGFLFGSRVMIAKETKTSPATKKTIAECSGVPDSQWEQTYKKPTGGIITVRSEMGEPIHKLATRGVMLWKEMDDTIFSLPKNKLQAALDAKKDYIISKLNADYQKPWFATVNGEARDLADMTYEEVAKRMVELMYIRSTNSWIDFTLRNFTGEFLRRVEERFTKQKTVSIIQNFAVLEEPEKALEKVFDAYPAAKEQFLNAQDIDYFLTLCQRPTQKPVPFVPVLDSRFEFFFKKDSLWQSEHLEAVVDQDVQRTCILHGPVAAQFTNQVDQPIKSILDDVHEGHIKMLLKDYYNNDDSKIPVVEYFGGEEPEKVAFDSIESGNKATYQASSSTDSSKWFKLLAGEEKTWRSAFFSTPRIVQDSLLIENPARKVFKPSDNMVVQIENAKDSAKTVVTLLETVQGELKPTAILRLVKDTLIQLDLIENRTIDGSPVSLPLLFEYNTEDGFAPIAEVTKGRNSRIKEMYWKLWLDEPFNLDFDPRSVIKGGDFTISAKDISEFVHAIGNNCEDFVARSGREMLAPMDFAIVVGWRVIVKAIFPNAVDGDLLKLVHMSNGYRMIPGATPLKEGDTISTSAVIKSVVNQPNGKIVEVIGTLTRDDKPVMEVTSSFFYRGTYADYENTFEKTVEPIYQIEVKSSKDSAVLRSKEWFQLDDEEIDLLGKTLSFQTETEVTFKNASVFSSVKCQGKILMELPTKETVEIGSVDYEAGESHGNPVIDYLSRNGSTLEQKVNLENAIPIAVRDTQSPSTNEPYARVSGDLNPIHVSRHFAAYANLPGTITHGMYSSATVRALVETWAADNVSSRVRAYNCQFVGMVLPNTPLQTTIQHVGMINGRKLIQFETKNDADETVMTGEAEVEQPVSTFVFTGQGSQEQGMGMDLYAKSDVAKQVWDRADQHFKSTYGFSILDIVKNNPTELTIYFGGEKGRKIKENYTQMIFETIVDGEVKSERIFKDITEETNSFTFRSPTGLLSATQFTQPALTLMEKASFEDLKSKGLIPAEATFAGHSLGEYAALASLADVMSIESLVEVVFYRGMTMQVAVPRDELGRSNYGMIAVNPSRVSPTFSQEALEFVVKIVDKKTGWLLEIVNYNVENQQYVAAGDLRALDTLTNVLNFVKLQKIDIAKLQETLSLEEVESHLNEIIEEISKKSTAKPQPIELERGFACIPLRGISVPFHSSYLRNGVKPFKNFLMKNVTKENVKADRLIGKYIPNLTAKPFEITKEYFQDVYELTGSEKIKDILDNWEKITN
procedure.text: Substrate specificity: reducing activity of the enzyme on various ketones and aldehydes
Assay type: biochemical
experimental.parameters: substrate 20 mM, coenzyme NADPH; ethyl 4-chloroacetoacetate-reducing activity = 100%
endpoint.label: Relative activity (%)

- compound: "CC(=O)COC(C)=O"
  measured.value: 0
- compound: "CCOC(=O)CC(=O)CCl [Ethyl 4-chloroacetoacetate]"
  measured.value: 100
- compound: "CC(=O)c1ccccc1"
  measured.value: 0
- compound: "COC(=O)CC(C)=O [Methyl acetoacetate]"
  measured.value: 0
- compound: "O=Cc1cccnc1"
  measured.value: 0
- compound: "CC(=O)C=O"
  measured.value: 1.8
- compound: "CC(=O)C(C)=O"
  measured.value: 4.2
- compound: "CCC(=O)C(C)=O"
  measured.value: 44.2
- compound: "O=C1CN2CCC1CC2"
  measured.value: 0.8
- compound: "CCOC(=O)C(=O)CCc1ccccc1"
  measured.value: 0
- compound: "CC(=O)CC(C)=O"
  measured.value: 0
- compound: "CC(=O)CCO [4-Hydroxy-2-butanone]"
  measured.value: 0
- compound: "CCOC(=O)CC(C)=O [Ethyl acetoacetate]"
  measured.value: 0
- compound: "COC(=O)CC(=O)CCl [Methyl 4-chloroacetoacetate]"
  measured.value: 66.3
- compound: "CCC=O"
  measured.value: 0
- compound: "O=C[C@H](O)[C@@H](O)[C@H](O)CO"
  measured.value: 0
